experimental protocol: compounds raising alpha-dystroglycan glycosylation – uHTS, Pro5-aDG cells, AlphaScreen, primary screen (AID 624168);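 also: Pro5 are CHO cells carrying HIG-tagged alpha-DG that lacks glycosylation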
experimental context: alpha-DG glycosylation AlphaScreen (IIH6), at 10 µM, 0% Pro5, 100% B10-LARGE cell signal
Screen size: about 360,000 compounds; about 800 (0.22%) were called active.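 The calls were made as follows: active = activation of at least 8% versus controls, or a plate z-score of at least 8; inactive = the rest.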 Only a selection was taken, and actives are over-represented in it overall.
Hi! Could you answer with just one of these? YES for active, NO for inactive

Example entries and their recorded answers appear below.
Challenge: Look up the recorded call for `Cc1cc(C)c(C#N)c(SCC(=O)NN2CC(=O)N(c3ccccc3F)CC2=O)n1` in this test.
Response given: NO

Challenge: Look up the recorded call for `Fc1ccc(OCc2nn3c(Cn4nnc5ccccc54)nnc3s2)cc1` in this test.
Response given: NO

Challenge: Look up the recorded call for Cc1c(C(=O)N2CCCC2)c(S(=O)(=O)NCC(C)c2ccccc2)c(C)n1C (stereo not given) in this test.
Response given: NO

Challenge: Look up the recorded call for `CC(C)[C@@H](C(=O)O)N(Cc1cccc(CN([C@H](C(=O)O)C(C)C)S(C)(=O)=O)c1)S(C)(=O)=O` in this test.
Response given: NO

Challenge: Look up the recorded call for `Cc1cccc(C)c1NC(=O)N1CC=C(n2c(=O)[nH]c3ccccc32)CC1` in this test.
Response given: NO

Challenge: Look up the recorded call for `O=C(CN(c1cc(C(F)(F)F)ccc1Cl)S(=O)(=O)c1ccccc1)NCc1cccnc1` in this test.
Response given: NO

Further cases:
Challenge: Look up the recorded call for `COc1cccc(-c2nnc(NC(=O)c3ccc(S(=O)(=O)N(CC(C)C)CC(C)C)cc3)o2)c1` in this test.
Response given: YES

Challenge: Look up the recorded call for `CN(C)C(=S)Nc1ccc(Br)cc1Cl` in this test.
Response given: NO

Challenge: Look up the recorded call for CN1OC(COC(=O)c2ccc(Cl)cc2)CC1c1ccccc1 (stereo not given) in this test.
Response given: NO

Challenge: Look up the recorded call for O=C(Nc1cccc(Br)c1)C1CC(=O)N(C2CCCC2)C1 (stereo not given) in this test.
Response given: NO

====

experimental protocol: compounds raising alpha-dystroglycan glycosylation – uHTS, Pro5-aDG cells, AlphaScreen, primary screen (AID 624168);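 also: Pro5 are CHO cells carrying HIG-tagged alpha-DG that lacks glycosylation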
experimental context: alpha-DG glycosylation AlphaScreen (IIH6), at 10 µM, stronger effect = higher value, 0% Pro5, 100% B10-LARGE cell signal
Among all 360,000 compounds or so, about 800 (0.22%) were called active. Many of the other results were omitted from the sample, so actives are more common in it than they were.
quantity kind: activation (%)
The figure you give is taken to be in %; do not add the unit.

Worked cases, activation given:
Notebook: O=C1CC(c2cccc(Br)c2)C2=C(CCCC2=O)N1 (stereo unspecified) , activation read as 0

Notebook: `CCn1cc(CN2CCC(C(=O)Nc3cccc(-c4cccc(Cl)c4)c3)CC2)cn1` , activation read as 3.4

Notebook: `CCn1cc(CN2CCC(C(=O)Nc3cccc(-c4cccc(Cl)c4)c3)CC2)c(C)n1` , activation read as 7.1

Notebook: `CCCCNCc1ccc(SC)cc1` , activation read as 0.3

Notebook: CC(=O)N1CSCC1C(=O)O (stereo unspecified) , activation read as 0.1

Turning now to a further record.
Notebook: `COc1ccc(C2(CNC(=O)Cc3ccc(OC)c(OC)c3)CCCC2)cc1` , activation read as -0.3
